target: Dual specificity tyrosine-phosphorylation-regulated kinase 1A (Homo sapiens, UniProt Q13627); assay: Inhibition of recombinant DYRK1A (unknown origin) using Ser/Thr 18 peptide as substrate incubated for 1 hr in presence of ATP by FRET assay
Give log10 EC50 for every item shown.
Parameter value (number): base-10 log of EC50 in µM.

**Q:** Recorded log10 EC50 for CN1CCN(c2nccc3[nH]c(-c4n[nH]cc4/C=C/c4cncc(F)c4)nc23)CC1 , please?
**A:** -2.00

**Q:** // same read-out, input: c1cncc(-c2ccc3[nH]nc(-c4cc5cccnc5[nH]4)c3n2)c1
**A:** -1.62

**Q:** // same read-out, input: c1cncc(-c2cc3c(-c4cc5cccnc5[nH]4)n[nH]c3cn2)c1
**A:** -2.30

**Q:** // same read-out, input: O=C(CC1CCNCC1)Nc1cncc(-c2ccc3[nH]nc(-c4nc5c(-c6ccsc6)nccc5[nH]4)c3n2)c1
**A:** -2.00

**Q:** // same read-out, input: CCC(=O)Nc1cncc(-c2cnc3[nH]nc(-c4cc5c(-c6cccnc6)cccc5[nH]4)c3c2)c1
**A:** -1.89

**Q:** // same read-out, input: CN(C)c1cncc(-c2ccc3[nH]nc(-c4nc5c(-c6cccc(F)c6)ccnc5[nH]4)c3n2)c1
**A:** -1.60

**Q:** // same read-out, input: NC(=O)c1ccc(NC(=O)c2n[nH]c3ccc(-c4cncc(CN5CCCCC5)c4)cc23)cn1
**A:** -3.00

**Q:** // same read-out, input: CCCCC(=O)Nc1cncc(-c2ccc3[nH]nc(-c4nc5c(-c6cc(F)cc(NCCN(C)C)c6)cncc5[nH]4)c3n2)c1
**A:** -1.26

**Q:** // same read-out, input: CC(C)(C)CC(=O)Nc1cncc(-c2cnc3[nH]nc(-c4cc5c(-c6cccnc6)cncc5[nH]4)c3c2)c1
**A:** -2.40

**Q:** // same read-out, input: CC(C)CC(=O)Nc1cncc(-c2cc3c(-c4nc5c(-c6cc(F)cc(OCCN7CCCC7)c6)cncc5[nH]4)n[nH]c3cn2)c1
**A:** -2.52

**Q:** // same read-out, input: CN(C)CCOc1cncc(-c2cnc3[nH]nc(-c4nc5c(-c6cccc(F)c6)nccc5[nH]4)c3c2)c1
**A:** -2.30

**Q:** // same read-out, input: CN1CCC(n2cc(C(=O)Nc3cc4cc(-c5cncc6[nH]ccc56)ccc4cn3)cn2)CC1
**A:** -2.52

**Q:** // same read-out, input: CN(C)CCNc1cc(F)cc(-c2cccc3[nH]c(-c4n[nH]c5cnc(-c6cncc(N)c6)cc45)cc23)c1
**A:** -1.64

**Q:** // same read-out, input: CCCC(=O)Nc1cncc(-c2ccc3[nH]nc(-c4nc5c(-c6ccsc6)cncc5[nH]4)c3n2)c1
**A:** -1.34

**Q:** // same read-out, input: CC(C)CC(=O)Nc1cncc(-c2ccc3[nH]nc(-c4nc5c(-c6cc(F)cc(CNS(C)(=O)=O)c6)cncc5[nH]4)c3c2)c1
**A:** -1.80

**Q:** // same read-out, input: CC(C)C(=O)Nc1cncc(-c2ccc3[nH]nc(-c4nc5c(-c6cccnc6)cncc5[nH]4)c3c2)c1
**A:** -2.00

**Q:** // same read-out, input: Nc1cncc(-c2ccc3[nH]nc(-c4cc5c(-c6ccncc6)nccc5[nH]4)c3c2)c1
**A:** -1.96

**Q:** // same read-out, input: O=C(Nc1ccc(OCCN2CCCC2)nc1)c1n[nH]cc1C#Cc1cccnc1
**A:** -1.62

**Q:** // same read-out, input: Cc1ncc(-c2ccc3[nH]nc(-c4nc5c(-c6cc(F)cc(NCCN(C)C)c6)ccnc5[nH]4)c3n2)n1C
**A:** -2.10

**Q:** // same read-out, input: COc1cncc(C#Cc2c[nH]nc2C(=O)Nc2ccc(OC3CCN(C)CC3)nc2)c1
**A:** -2.05

**Q:** // same read-out, input: Nc1cncc(-c2ccc3[nH]nc(-c4cc5c(N6CCCCC6)ccnc5[nH]4)c3c2)c1
**A:** -1.48

**Q:** // same read-out, input: CC(C)(C)C(=O)Nc1cncc(-c2ccc3[nH]nc(-c4nc5c(-c6ccc(Cl)s6)cncc5[nH]4)c3n2)c1
**A:** -1.15

**Q:** // same read-out, input: c1cc2[nH]c(-c3n[nH]c4ccc(-c5cncc(CN6CCCCC6)c5)cc34)cc2cn1
**A:** -2.40

**Q:** // same read-out, input: Cn1ncc(-c2ccc3cnc(NC(=O)[C@H]4CC[C@H](CO)CC4)cc3c2)c1CN1CCCCC1
**A:** -2.52

**Q:** // same read-out, input: CC(C)CC(=O)Nc1cncc(-c2cnc3[nH]nc(-c4cc5c(-c6cc(F)cc(CNS(C)(=O)=O)c6)nccc5[nH]4)c3c2)c1
**A:** -1.72

**Q:** // same read-out, input: CN(C)Cc1cncc(-c2cnc3[nH]nc(-c4cc5c(-c6cccc(F)c6)nccc5[nH]4)c3c2)c1
**A:** -1.04

**Q:** // same read-out, input: COc1cncc(C(=O)Nc2c[nH]nc2C(=O)Nc2ccc3c(c2)CCNC3)c1
**A:** -2.10

**Q:** // same read-out, input: Cc1n[nH]c2ccc(-c3cncc(N[C@H](CO)Cc4cccc(C(F)(F)F)c4)n3)cc12
**A:** -1.35

**Q:** // same read-out, input: Nc1cncc(-c2cc3c(-c4cc5c(-c6ccccc6F)ccnc5[nH]4)n[nH]c3cn2)c1
**A:** -1.38

**Q:** // same read-out, input: CN(C)Cc1cncc(-c2ccc3[nH]nc(-c4cc5c(N6CCCCC6)nccc5[nH]4)c3c2)c1
**A:** -1.48

**Q:** // same read-out, input: CC(C)C(=O)Nc1cncc(-c2cc3c(-c4cc5c(-c6cc(F)cc(CNS(C)(=O)=O)c6)nccc5[nH]4)n[nH]c3cn2)c1
**A:** -1.57

**Q:** // same read-out, input: FC1(F)CCN(Cc2cncc(-c3ccc4[nH]nc(-c5cc6c(-c7ccccn7)cccc6[nH]5)c4n3)c2)C1
**A:** -1.48

**Q:** // same read-out, input: O=C(Nc1cncc(-c2ccc3[nH]nc(-c4cc5cnccc5[nH]4)c3c2)c1)C1CCCCC1
**A:** -2.70

**Q:** // same read-out, input: CN1CCN(c2cccc3[nH]c(-c4n[nH]c5ccc(-c6cncc(CN7CCCCC7)c6)cc45)cc23)CC1
**A:** -1.46

----------
assay: Effect on Wnt signaling pathway in human SW480 cells harbouring TCF/LEF luciferase reporter gene and SP5-Luc reporter gene incubated for 36 to 48 hrs by luminescence assay; format: cell-based
Give pEC50 for every item shown.
Remember, pEC50 is on a log scale: it is -log10 of the molar concentration.

**Q:** Recorded pEC50 for CC(C)CC(=O)Nc1cncc(-c2ccc3[nH]nc(-c4cc5c(-c6cc(F)cc(CNS(C)(=O)=O)c6)nccc5[nH]4)c3n2)c1 , please?
**A:** 6.32

**Q:** // same read-out, input: CC(C)(C)CC(=O)Nc1cncc(-c2cc3c(-c4cc5c(-c6ccccc6F)nccc5[nH]4)n[nH]c3cn2)c1
**A:** 5.99

**Q:** // same read-out, input: O=C(Nc1ccc2c(c1)OCCO2)c1n[nH]c2ccc(-c3cncc(CN4CCCCC4)c3)cc12
**A:** 6.90

**Q:** // same read-out, input: O=C(Nc1cncc(-c2ccc3[nH]nc(-c4nc5c(-c6cccs6)cccc5[nH]4)c3n2)c1)C1CC1
**A:** 5.47

----------
Give EC50 for every item shown.
assay: Effect on Wnt signaling pathway in human SW480 cells harbouring TCF/LEF luciferase reporter gene and SP5-Luc reporter gene incubated for 36 to 48 hrs by luminescence assay; type: cell-based
The response must be a number in nM with no trailing unit.

**Q:** Recorded EC50 for CN(C)CCOc1cncc(-c2cnc3[nH]nc(-c4nc5c(-c6cccc(F)c6)nccc5[nH]4)c3c2)c1 , please?
**A:** 253

**Q:** // same read-out, input: CN(C)Cc1cncc(-c2ccc3[nH]nc(-c4nc5c(-c6cccc(F)c6)nccc5[nH]4)c3n2)c1
**A:** 1050

**Q:** // same read-out, input: FC1(F)CCN(Cc2cncc(-c3cnc4[nH]nc(-c5nc6c(-c7ccoc7)nccc6[nH]5)c4c3)c2)C1
**A:** 162

**Q:** // same read-out, input: CN(C)c1cncc(-c2cc3c(-c4cc5cnccc5[nH]4)n[nH]c3cn2)c1
**A:** 3060

**Q:** // same read-out, input: O=C(Nc1cncc(-c2cc3c(-c4cc5c(N6CCCCC6)nccc5[nH]4)n[nH]c3cn2)c1)C1CCC1
**A:** 4070

**Q:** // same read-out, input: FC1(F)CCN(Cc2cncc(-c3ccc4[nH]nc(-c5cc6cccnc6[nH]5)c4n3)c2)C1
**A:** 104

**Q:** // same read-out, input: FC1(F)CCN(Cc2cncc(-c3ccc4[nH]nc(-c5nc6c(N7CCCCC7)cncc6[nH]5)c4c3)c2)C1
**A:** 20

**Q:** // same read-out, input: FC1(F)CCN(Cc2cncc(-c3cnc4[nH]nc(-c5cc6c(-c7ccncc7)cncc6[nH]5)c4c3)c2)C1
**A:** 1510

**Q:** // same read-out, input: Cc1ccncc1-c1cc2c(-c3nc4c(-c5cc(F)cc(CNS(C)(=O)=O)c5)cccc4[nH]3)n[nH]c2cn1
**A:** 30.4

**Q:** // same read-out, input: Fc1ccc(-c2cncc3[nH]c(-c4n[nH]c5cnc(-c6cncc(CN7CCCC7)c6)cc45)nc23)s1
**A:** 470

**Q:** // same read-out, input: CN1CCN(c2nccc3[nH]c(-c4n[nH]c5cnc(-c6cncc(NC(=O)C7CCCCC7)c6)cc45)cc23)CC1
**A:** 3420

**Q:** // same read-out, input: CCCC(=O)Nc1cncc(-c2cc3c(-c4nc5c(-c6ccsc6)cncc5[nH]4)n[nH]c3cn2)c1
**A:** 61.5

**Q:** // same read-out, input: CCCCC(=O)Nc1cncc(-c2ccc3[nH]nc(-c4cc5c(N6CCCCC6)cccc5[nH]4)c3n2)c1
**A:** 572

**Q:** // same read-out, input: CN(C)c1cncc(-c2ccc3[nH]nc(-c4nc5c(-c6cccs6)cncc5[nH]4)c3n2)c1
**A:** 710

**Q:** // same read-out, input: Cc1nnc(C(=O)Nc2cc3cc(-c4cncn4C)ccc3cn2)s1
**A:** 1890

**Q:** // same read-out, input: O=C(Nc1cnccn1)c1n[nH]c2ccc(-c3cncc(CN4CCCCCC4)c3)cc12
**A:** 430

**Q:** // same read-out, input: CC(C)Nc1cncc(-c2ccc3cnc(NC(=O)C4CCN(CCF)CC4)cc3c2)n1
**A:** 178

**Q:** // same read-out, input: Nc1cncc(-c2ccc3[nH]nc(-c4cc5c(N6CCCCC6)ccnc5[nH]4)c3c2)c1
**A:** 604

**Q:** // same read-out, input: CCC(=O)Nc1cncc(-c2ccc3[nH]nc(-c4cc5c(N6CCCCC6)nccc5[nH]4)c3c2)c1
**A:** 445

**Q:** // same read-out, input: O=C(Nc1cncc(-c2cnc3[nH]nc(-c4nc5c(-c6cccnc6)cncc5[nH]4)c3c2)c1)C1CCC1
**A:** 35.4

**Q:** // same read-out, input: COc1ccc(NC(=O)c2n[nH]cc2/C=C/c2cncc(CN3CCCCC3)c2)cn1
**A:** 1450

**Q:** // same read-out, input: O=C(Nc1cncc(-c2ccc3[nH]nc(-c4nc5c(-c6cccc(F)c6)cccc5[nH]4)c3n2)c1)C1CC1
**A:** 1080

**Q:** // same read-out, input: Cn1cc(-c2cc3c(C(=O)Nc4ccc(OCCN5CCCC5)cc4)n[nH]c3cc2F)cn1
**A:** 315

**Q:** // same read-out, input: O=C(Nc1cncc(-c2cnc3[nH]nc(-c4cc5c(-c6cccs6)nccc5[nH]4)c3c2)c1)C1CCC1
**A:** 473

**Q:** // same read-out, input: Nc1cncc(-c2ccc3[nH]nc(-c4cc5c(-c6cccnc6)nccc5[nH]4)c3c2)c1
**A:** 146

**Q:** // same read-out, input: c1ccc2[nH]c(-c3n[nH]c4ncc(-c5cncc(CN6CCCC6)c5)cc34)cc2c1
**A:** 1410

**Q:** // same read-out, input: Fc1ccccc1-c1nccc2[nH]c(-c3n[nH]c4cnc(-c5cn[nH]c5)cc34)cc12
**A:** 30.5
